The following binders are shown together with reported 100 nM FACS (MFI Ratio) values.
biological target: T1, neuropilin-1 (NRP1) on HEK293 cells overexpressing NRP1 (UniProt O14786 22-923, limits assumed); test: flow cytometry, HEK293-NRP1 vs HEK293
T1 construct: whole, on cells

{"binder": "NRP1-137 (antibody, IgG2, V domains shown) VH: EVQLLESGGGLVQPGGSLRLSCAASGFTFSRYAMNWVRQAPGKGLEWVSTISSGGGYTYYPDSVKGRFTISRDNSKNTLYLQMNSLRAEDTAVYYCARSYGGGFDYWGQGTLVTVSS VL: DIQMTQSPSSLSASVGDRVTITCQASQSISSYLAWYQQKPGKAPKLLIYPKHNRPPGVPSRFSGSGSGTDFTLTISSLQPEDFATYYCQQSYKSPLTFGQGTKVEIK", "100 nM FACS (MFI Ratio)": 1200}
{"binder": "NRP1-219 (antibody, IgG2, V domains shown) VH: EVQLLESGGGLVQPGGSLRLSCAASGFPFSSYALSWVRQAPGKGLEWVSAITGSGGNTFYADSVKGRFTISRDNSKNTLYLQMNSLRAEDTAVYYCARGGQSGRPRVRGARRLDYYGMDVWGQGTLVTVSS VL: DIQMTQSPSSLSASVGDRVTITCRASQSISKSLNWYQQKPGKAPKLLIYGASKLQRGVPSRFSGSGSGTDFTLTISSLQPEDFATYYCQQGYSAPLTFGGGTKVEIK", "100 nM FACS (MFI Ratio)": 1.2}
{"binder": "NRP1-106 (VHH) VHH: EVQLVESGGGLVQPGGSLRLSCAASGRTFSIYAMGWFRQAPGKERELVAAISRTGGSTYYADSVKGRFTISADNSKNTAYLQMNSLKPEDTAVYYCAARRIVNVEGAYRDWGQGTLVTVSS", "100 nM FACS (MFI Ratio)": 2.2}
{"binder": "NRP1-229 (antibody, IgG2, V domains shown) VH: EVQLLESGGGLVQPGGSLRLSCAASGLTFSNFAMSWVRQAPGKGLEWVSAISGRGSSTYYADSVKGRFTISRDNSKNTLYLQMNSLRAEDTAVYYCARVMKMSRRIVGRRHRKGDGMDVWGQGTLVTVSS VL: DIQMTQSPSSLSASVGDRVTITCRASQAISRSLNWYQQKPGKAPKLLIYGASALQTGVPSRFSGSGSGTDFTLTISSLQPEDFATYYCQQSYRPPFTFGGGTKVEIK", "100 nM FACS (MFI Ratio)": 1.2}
{"binder": "NRP1-48 (VHH) VHH: EVQLVESGGGLVQPGGSLRLSCAASGFTFRNFGMGWFRQAPGKERELVARITGGGSTAYADSVKGRFTISADNSKNTAYLQMNSLKPEDTAVYYCAARRIVNVEGAYRDWGQGTLVTVSS", "100 nM FACS (MFI Ratio)": 0.7}
{"binder": "NRP1-11 (VHH) VHH: EVQLVESGGGLVQPGGSLRLSCAASGRTFTTYPMGWFRQAPGKEREFVAAITWNGASTSYADSVKGRFTISADNSKNTAYLQMNSLKPEDTAVYYCAKGGGYSGYDYDYWGQGTLVTVSS", "100 nM FACS (MFI Ratio)": 2.3}

The origin of these recorded values is patent US20230265198A1.
